Reported GI50 values follow for various molecules
Tested on: K-562 leukemia
Assay: NCI tumour cell line growth inhibition, 48 h

For `CC(=O)[O-].[Mn+3].[O-]c1ccccc1C=NCCNCCN=Cc1ccccc1[O-]` , what is its reported GI50?
> 100 µM

Entry under review: O=P1(S)OC[C@H]2O[C@@H]3[C@H](F)[C@@H]2OP(O)(=S)OC[C@H]2O[C@H]([C@H](F)[C@@H]2O1)n1cnc2c(ncnc21)NC/C=C/CNc1ncnc2c1ncn23 (some centres undefined) . Reported GI50?
> 100 µM

I would be grateful if you could share the reported GI50 for `S=c1nc(N/N=C/c2ccco2)c2cn[nH]c2[nH]1` .
39.9 µM

Fill blank: measured GI50 of the molecule `C#Cc1nc2ccccc2c(=O)[nH]1` is ____.
0.544 µM

* * *

System: T-47D breast
Assay: NCI tumour cell line growth inhibition, 48 h
Reported TGI is given for each of the following compounds.

// solved cases for TGI follow
# COMPOUND, TGI
records = [
    ("C/C(=N\\NC(=S)N(C)C)c1cccnn1", "> 100 µM"),
    ("CCOC(=O)c1cc(C)nc2c1c(=O)n(-c1ccccc1)c(=O)n2CCCCN1CCN(c2ccccc2)CC1", "> 100 µM"),
    ("COc1ccc(-c2oc3cc(O)cc(O)c3c(=O)c2OC)cc1", "> 100 µM"),
    ("Cc1c2cc(Cl)c3ccccc3c2c[n+]2ccccc12", "2.53 µM"),
    ("CC(C)(C)CC(C)(C)c1cc(O)c(O)c(CN2CCCCC2)c1", "33.9 µM"),
]

Attention now turns to another entry.
May I ask what TGI has been recorded for `O=C(O)COc1cc(-c2ccccc2)nc2cc(F)ccc12` ?
> 100 µM

* * *

Tested on: OVCAR-3 ovarian
Test: NCI tumour cell line growth inhibition, 48 h
PARAMETER_MEASURED: TGI

Worked set:
# COMPOUND, TGI
rows = [
    ("Cc1ccc(N=Nc2c(O)ccc3ccccc23)cc1", "> 100 µM"),
    ("O=c1c(-c2ccccc2)c(SCCO)n(-c2ccccc2)c(=S)n1-c1ccccc1", "> 100 µM"),
    ("S=c1nc(N/N=C/c2ccco2)c2cn[nH]c2[nH]1", "> 100 µM"),
]

Please state recorded TGI (tested on OVCAR-3 ovarian) of `Cc1nn(-c2ccccc2)c(C)c1/C=N/N=C1\S/C(=C\c2ccc(Cl)cc2)C(=O)N1c1ccccc1`
> 100 µM

Query TGI on OVCAR-3 ovarian for `CC(C)OP(=O)(OC(C)C)/C(N)=N/Nc1ccc([N+](=O)[O-])cc1`
> 100 µM

Which measured TGI belongs to CC1(C)CC(=O)C2(CC(CSc3ccccc3)C(CS(=O)(=O)c3ccccc3)C2)C(=O)C1 (stereo unspecified) , tested on OVCAR-3 ovarian?
> 100 µM

Give the reported TGI for `C/C(=N\NC(=S)N(C)C)c1cccnn1` (system: OVCAR-3 ovarian).
> 100 µM

Hello, I am looking for reported TGI with OVCAR-3 ovarian for `COc1cc(NC(=O)CCSc2nc3ccc(C)cc3c(=O)n2Cc2ccccc2)cc(OC)c1OC` . Could you help?
> 100 µM

Identify the measured TGI of `Cc1c2c(c(C)c3c4c(oc13)CCCC4)C=NCC2` for OVCAR-3 ovarian.
31.5 µM

Query TGI on OVCAR-3 ovarian for CC(C)CCCC(C)[C@H]1CCC2[C@@H]3CCC4Nc5c(cnn5-c5ccccc5)C[C@]4(C)C3CC[C@@]21C (stereo partly specified)
> 100 µM

Param readout= TGI; system= OVCAR-3 ovarian; entry= `c1ccc2c(c1)oc1ccc3nsnc3c12` ; returns value.
> 100 µM

Param readout = TGI; param system = OVCAR-3 ovarian; param query = `C#Cc1nc2ccccc2c(=O)[nH]1` ; response: value
0.643 µM

* * *

Test system: RPMI-8226 leukemia
Test: NCI tumour cell line growth inhibition, 48 h
Entries and their TGI values follow.

Solved entries:
# COMPOUND, TARGET_ENTITY, TGI
data = [
    ("Cc1nc2c(n1C)C(=O)c1ccccc1C2=O", "RPMI-8226 leukemia", "> 100 µM"),
    ("Cc1ccc(S(=O)CC(CF)OCn2cc(C)c(=O)[nH]c2=O)cc1 (stereo unspecified)", "RPMI-8226 leukemia", "> 100 µM"),
    ("O=C1/C(=C/c2ccccc2)CN(C(=O)CCN2CCCC2)C/C1=C\\c1ccccc1", "RPMI-8226 leukemia", "2.46 µM"),
    ("N#Cc1cc2c(n(C3OC(CO)C(O)C(O)C3O)c1=S)CCCCCC2 (stereo unspecified)", "RPMI-8226 leukemia", "> 100 µM"),
    ("Cc1cc(C)c2c(c1)C(=O)/C(=C/c1ccccc1C(=O)O)C2", "RPMI-8226 leukemia", "> 100 µM"),
]

Hello, I am looking for reported TGI with RPMI-8226 leukemia for `Cn1c(-c2ccc(/C=N/NC(=S)N/N=C/c3ccc(-c4c[n+]5ccsc5n4C)cc3)cc2)c[n+]2ccsc12` . Could you help?
> 100 µM

* * *

In this section we review reported TGI values for a set of compounds.
Test system: LOX IMVI melanoma
Assay: NCI tumour cell line growth inhibition, 48 h

Consider the reported TGI for these compounds:
# COMPOUND, TGI
data = [
    ("Cc1cc(O)c(C2=NN(c3ccc(S(N)(=O)=O)cc3)C(c3ccc(Cl)cc3)C2)c(C)c1Cl (stereo not drawn)", "6.98 µM"),
    ("CC(C)=CCNc1nc(Cl)nc2nc[nH]c12", "> 100 µM"),
]

Suppose we examine the compound `Cc1cc(C)c2c(c1)C(=O)/C(=C/c1ccccc1C(=O)O)C2` ; what TGI value has been reported?
> 100 µM

Look up TGI: CC(C)Cc1ccc(C(C)CC2=CCC(CN(C)C)C2=O)cc1 (stereo not drawn)
9.84 µM

Can you look up the measured TGI of Cc1ccc(S(=O)CC(CF)OCn2cc(C)c(=O)[nH]c2=O)cc1 (stereo not drawn) for me?
> 100 µM

Need TGI, item `COc1ccc(C(=O)NNc2nc(Cl)nc(N3CCN(C(c4ccccc4)c4ccccc4)CC3)n2)cc1`
3.05 µM

Entry NNC(=O)C1(NC(=O)c2ccccc2)C(c2ccccc2)C(c2ccccc2)=NN1c1ccccc1 (stereo not drawn) has what TGI?
> 100 µM

Query: TGI; subject: `c1cncc(CNCc2cccnc2)c1`
> 100 µM

* * *

Tested on: HCT-116 colon
Test: NCI tumour cell line growth inhibition, 48 h
PARAMETER_MEASURED: TGI

# ENTRY_SMILES, TARGET_ENTITY, OBS_VALUE
rows = [
    ("CC(=O)O[C@]1(C)OC(=O)[C@@H](CC(C)C)N1[N+](=O)[O-]", "HCT-116 colon", "> 100 µM"),
    ("Cc1cc(N(CCC#N)CCC#N)ccc1N=Nc1ccc(Br)cc1", "HCT-116 colon", "> 100 µM"),
]

Note: attention shifts to another entry.
Short answer please: TGI, HCT-116 colon, entry `Nc1nc(Cl)cc(NC23CC4CC(CC(C4)C2)C3)n1`
> 100 µM

* * *

In this section, each of the molecules is paired with its reported TGI.
Tested on: OVCAR-5 ovarian
Test: NCI tumour cell line growth inhibition, 48 h

# MOLECULE, TARGET_ENTITY, PARAMETER_MEASURED, OBS_VALUE
rows = [
    ("O=c1ncccn1C1OC(CO)C(O)C1O (configuration not stated)", "OVCAR-5 ovarian", "TGI", "> 100 µM"),
    ("COC(=O)C1C(O)C(C)C(O)C(C)C=C(C)C2=C3C(=C(C)C(=O)c4c(O)c(c(C)c(OC(C)=O)c43)NC(=O)C(C)=C/C=C\\C(C)C(O)C(C)C1O)OCO2 (configuration not stated)", "OVCAR-5 ovarian", "TGI", "> 100 µM"),
    ("O=c1cc(N/N=C/c2ccc(F)cc2)c2cc(Cl)ccc2[nH]1", "OVCAR-5 ovarian", "TGI", "58.9 µM"),
    ("CC(C)(C)n1c(=O)[nH]c(=O)n1C(C)(C)C", "OVCAR-5 ovarian", "TGI", "> 100 µM"),
    ("CCN(c1cc(-c2ccc(CN3CCOCC3)cc2)cc(C(=O)NCc2c(C)cc(C)[nH]c2=O)c1C)C1CCOCC1", "OVCAR-5 ovarian", "TGI", "> 82.5 µM"),
    ("Cc1nn(-c2ccccc2)c(C)c1/C=N/N=C1\\S/C(=C\\c2ccc(Cl)cc2)C(=O)N1c1ccccc1", "OVCAR-5 ovarian", "TGI", "> 100 µM"),
    ("Cc1cc(=O)[nH]c(NN2C(Cl)C(=O)C2c2ccc([N+](=O)[O-])cc2)n1 (configuration not stated)", "OVCAR-5 ovarian", "TGI", "52.8 µM"),
    ("O=C1CCC(N2C(=O)c3ccccc3C2=O)C(=O)N1 (configuration not stated)", "OVCAR-5 ovarian", "TGI", "> 100 µM"),
    ("O=c1[nH]n(Cc2ccccc2)c2ccc([N+](=O)[O-])cc12", "OVCAR-5 ovarian", "TGI", "> 100 µM"),
    ("C=C1CCC2(C#N)[C@H]3[C@H](CC[C@@H]2C)[C@@H](C)C[C@@H](CC(C)(C)NC(=O)CN2CCC2=O)[C@H]13 (some centres not stated)", "OVCAR-5 ovarian", "TGI", "22.5 µM"),
]

For the molecule CC(C)CCCC(C)[C@H]1CCC2[C@@H]3CCC4Nc5c(cnn5-c5ccccc5)C[C@]4(C)C3CC[C@@]21C (some centres not stated) , what TGI is on record?
> 100 µM

Requested field: TGI. Item: `Cc1ccc(S(=O)(=O)c2ccccc2[N+](=O)[O-])cc1`
> 100 µM
